experimental-parameters: in acetonitrile, 298.15 K
measurement-type: solubility (mole fraction)
Reply briefly: the number, and no unit.

query: I would be grateful if you could share the reported solubility (mole fraction) for "CN1CCN(C2=Nc3cc(Cl)ccc3Nc3ccccc32)CC1" .
result: 0.00316

====

experimental-parameters: in isopentanol, 308.15 K
measurement-type: solubility (mole fraction)
// return a plain number; no unit text

query: Consider the molecule shown here: "CN1CCN(C2=Nc3cc(Cl)ccc3Nc3ccccc32)CC1" What is its recorded solubility (mole fraction)?
result: 0.0156

====

experimental-parameters: in THF, 293.15 K
measurement-type: solubility (mole fraction)

query: Using the record for "CN1CCN(C2=Nc3cc(Cl)ccc3Nc3ccccc32)CC1" , report its solubility (mole fraction).
result: 0.0765
